Reported % cells binding to HA values for the following binders.
molecular target: H14 (Influenza A virus); assay: FACS, HA on mammalian cells; 2nd only 12
Write down the numeric answer in % and omit the unit.

Solved cases (3 shown):
# Binder, Unit, % cells binding to HA
records = [
    ("FHF11 (antibody, V domains shown) VH: QVQLQQSGPGLVKPSQTLSVTCGISGDSVSSHSAAWNWIRQSPSRGLEWLGRTYYRSKWYNDYAVSVKSRITINPDTSKNQFSLQLISVTPEDTAVYYCARVGAMTFGLLTGGMDVWGQGTTVTVSS VL: EIVLTQSPGTQSLSPGERATLSCRASQSLSRSYLAWYQQRPGKPPRLLIYGASSRATGIPDRFSGSGSGTDFSLTISSLEPEDSAMYFCQYYGDSPLFSFGPGTKVDIK", "%", 79),
    ("FHF11v6 (antibody, V domains shown) VH: QVQLQQSGPGLVKPSQTLSVTCGISGDSVSSHSAAWNWIRQSPSRGLEWLGRTYYRSGWYNDYAVSVKSRITINPDTSKNQFSLQLISVTPEDTAVYYCARVGAMTFGLLTGGMDVWGQGTTVTVSS VL: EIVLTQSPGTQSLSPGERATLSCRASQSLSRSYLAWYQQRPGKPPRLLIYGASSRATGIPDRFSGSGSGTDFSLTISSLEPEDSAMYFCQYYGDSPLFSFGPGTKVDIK", "%", 70),
    ("FHF11v9 (antibody, V domains shown) VH: QVQLQQSGPGLVKPSQTLSVTCGISGDSVSSYSAAWNWIRQSPSRGLEWLGRTYYRSGWYNDYAVSVKSRITINPDTSKNQFSLQLISVTPEDTAVYYCARVGAMTFGLLTGGMDVWGQGTTVTVSS VL: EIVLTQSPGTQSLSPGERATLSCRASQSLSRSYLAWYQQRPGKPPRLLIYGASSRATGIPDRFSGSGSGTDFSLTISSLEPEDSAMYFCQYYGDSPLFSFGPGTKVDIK", "%", 70),
]

Consider now this further binder.
% cells binding to HA measured on FHF11v3 (antibody, V domains shown) VH: QVQLQQSGPGLVKPSQTLSVTCGISGDSVSSYSAAWNWIRQSPSRGLEWLGRTYYRSKWYNDYAVSVKSRITINPDTSKNQFSLQLISVTPEDTAVYYCARVGAMTFGLLTGGMDVWGQGTTVTVSS VL: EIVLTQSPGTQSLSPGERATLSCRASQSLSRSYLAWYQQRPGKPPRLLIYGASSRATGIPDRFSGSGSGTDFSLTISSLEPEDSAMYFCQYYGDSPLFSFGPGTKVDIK = 70
